Here the recorded percent survival of parasite is given for each entry.
system: adenosine kinase deficient (TgAK^-3) strain of T. gondii; assay: Anti-toxoplasmic activity in tissue culture; assay type: cell-based, Toxoplasma gondii; settings: TgAK^-3 in human fibroblasts, 50 μM compound
I only need the number, in %, no unit after it.

Endpoint output: percent survival of parasite of CS(=O)(=O)c1ccc(CSc2ncnc3c2ncn3C2CC(CO)C(O)C2O)cc1 (centres unmarked) . Value?
100

What do you get for OCC1CC(n2cnc3c(SCc4ccccc4Cl)ncnc32)C(O)C1O (centres unmarked) ?
100

What do you get for Cc1cccc(CSc2ncnc3c2ncn3C2CC(CO)C(O)C2O)c1 (centres unmarked) ?
100

What do you get for COc1ccc(CSc2ncnc3c2ncn3C2CC(CO)C(O)C2O)cc1 (centres unmarked) ?
100

What do you get for OCC1CC(n2cnc3c(SCc4ccccc4)ncnc32)C(O)C1O (centres unmarked) ?
100
